- Tested on: 422866-222-R5-J1-PDC spheroids with HUVEC/MSC, viability;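 also: spheroids exposed to compounds for seven days before reading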
- assay protocol: Anticancer human tumor 422866-222-R5-J1-PDC patient-derived pancreatic adenocarcinoma cell line growth inhibition [GQUAD]
- condition info: curve of first compound; second compound 3.16 µM
measured metric: pIC50
Give bare numbers, as −log10 of the molar value.

Would you be so kind as to report pIC50 for each listed record?
1. COc1cccc2c1C(=O)c1c(O)c3c(c(O)c1C2=O)CC(O)(C(=O)CO)CC3OC1CC(N)C(O)C(C)O1 (stereo unspecified) + Cc1[nH]c2ccc(F)cc2c1-c1nc2c3cccnc3c3ncccc3c2[nH]1
2. COc1cccc2c1C(=O)c1c(O)c3c(c(O)c1C2=O)CC(O)(C(=O)CO)CC3OC1CC(N)C(O)C(C)O1 (stereo unspecified) + CN(C)c1ccc(Nc2c3ccc(NC(=O)CCN4CCCC4)cc3nc3cc(NC(=O)CCN4CCCC4)ccc23)cc1
3. Nc1ccn(C2OC(CO)C(O)C2(F)F)c(=O)n1 (stereo unspecified) + Cc1[nH]c2ccc(F)cc2c1-c1nc2c3cccnc3c3ncccc3c2[nH]1

A)
6.46
6.25
6.46

Where do the numbers come from? From PubChem BioAssay AID2060511.
